molecular target: Alpha-glucosidase MAL12 (Saccharomyces cerevisiae (strain ATCC 204508 / S288c)); test: Baker's Yeast α-Glucosidase Inhibition Assay; details: pH 6.8
pIC50: −log10 of the molar value.
Hi, to clarify the labels: criterion met covers pIC50 from 4 upward, criterion not met covers anything below 4.

Example entries begin here.
INSERT INTO measurements (smi, group) VALUES
  ('Cc1cc2nc(-c3ccc(C(=O)N/N=C/c4cc(O)ccc4O)cc3)[nH]c2cc1C', 'criterion met'),
  ('Cc1cc2nc(-c3ccc(C(=O)N/N=C/c4cccc(F)c4)cc3)[nH]c2cc1C', 'criterion not met');

Req: Would you say Cc1cccc(/C=N/NC(=O)c2ccc(-c3nc4cc(C)c(C)cc4[nH]3)cc2)c1 shows pIC50 at minimum 4?
Resp: criterion met

Req: Quick check: does Cc1cc2nc(-c3ccc(C(=O)N/N=C/c4ccco4)cc3)[nH]c2cc1C have pIC50 greater than or equal to 4?
Resp: criterion met

Req: Threshold query (pIC50 >= 4) on Cc1cc2nc(-c3ccc(C(=O)N/N=C/c4ccccc4C)cc3)[nH]c2cc1C
Resp: criterion met

Req: Identify whether the reported pIC50 of the following compound is 4 or greater: Cc1cc2nc(-c3ccc(C(=O)N/N=C/c4cc(O)c(O)c(O)c4)cc3)[nH]c2cc1C
Resp: criterion met

Req: Reported pIC50 reaches at least 4 for COc1ccc(/C=N/NC(=O)c2ccc(-c3nc4cc(C)c(C)cc4[nH]3)cc2)cc1OC ?
Resp: criterion not met

Req: Is it the case that Cc1cc2nc(-c3ccc(C(=O)N/N=C/c4ccc([N+](=O)[O-])cc4)cc3)[nH]c2cc1C has pIC50 reaching or exceeding 4?
Resp: criterion met

Req: Does the reported pIC50 for Cc1cc2nc(-c3ccc(C(=O)N/N=C/c4ccncc4)cc3)[nH]c2cc1C fall at or above the 4 mark?
Resp: criterion not met

###

Provide the recorded pIC50 for the entries that follow.
target: Alpha-glucosidase MAL12 (Saccharomyces cerevisiae (strain ATCC 204508 / S288c), UniProt P53341); assay: Baker's Yeast α-Glucosidase Inhibition Assay; conditions: pH 6.8
Sequence (P53341 whole entry): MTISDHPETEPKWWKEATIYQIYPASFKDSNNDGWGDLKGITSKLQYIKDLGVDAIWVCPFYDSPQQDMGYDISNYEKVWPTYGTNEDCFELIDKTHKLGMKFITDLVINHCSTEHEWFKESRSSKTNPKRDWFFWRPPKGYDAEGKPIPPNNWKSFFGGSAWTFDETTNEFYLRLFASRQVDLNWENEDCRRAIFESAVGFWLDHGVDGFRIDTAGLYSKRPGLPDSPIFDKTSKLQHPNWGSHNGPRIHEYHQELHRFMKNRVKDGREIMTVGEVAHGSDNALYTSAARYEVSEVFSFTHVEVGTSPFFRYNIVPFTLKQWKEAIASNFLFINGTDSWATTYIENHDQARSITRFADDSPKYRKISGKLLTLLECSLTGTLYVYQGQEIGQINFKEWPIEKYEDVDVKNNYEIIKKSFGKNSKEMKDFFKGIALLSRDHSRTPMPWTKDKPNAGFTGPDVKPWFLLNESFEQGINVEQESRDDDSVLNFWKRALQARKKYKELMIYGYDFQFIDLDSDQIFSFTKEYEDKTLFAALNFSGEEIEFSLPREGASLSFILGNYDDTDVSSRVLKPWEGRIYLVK
Numbers only, as −log10 of the molar value.

// solved cases for pIC50 follow
INSERT INTO results (smi, result_type, val) VALUES
  ('Cc1cc2nc(-c3ccc(C(=O)N/N=C/c4ccc(O)cc4)cc3)[nH]c2cc1C', 'pIC50', 4.58),
  ('COc1ccc(/C=N/NC(=O)c2ccc(-c3nc4cc(C)c(C)cc4[nH]3)cc2)cc1O', 'pIC50', 4.54),
  ('Cc1cc2nc(-c3ccc(C(=O)N/N=C/c4ccccn4)cc3)[nH]c2cc1C', 'pIC50', 4.59),
  ('Cc1cc2nc(-c3ccc(C(=O)N/N=C/c4ccc(O)cc4O)cc3)[nH]c2cc1C', 'pIC50', 5.06);

# per-item lookup of pIC50; items listed below
1. Cc1cc2nc(-c3ccc(C(=O)N/N=C/c4cccnc4)cc3)[nH]c2cc1C
2. Cc1cc2nc(-c3ccc(C(=O)N/N=C/c4cccc(O)c4O)cc3)[nH]c2cc1C
3. COc1ccc(/C=N/NC(=O)c2ccc(-c3nc4cc(C)c(C)cc4[nH]3)cc2)cc1
4. Cc1cc2nc(-c3ccc(C(=O)N/N=C/c4ccc(O)c(O)c4)cc3)[nH]c2cc1C

Resp:
[4.34, 5.00, 4.49, 4.90]

For each listed entry, give its pIC50.
1. Cc1cc2nc(-c3ccc(C(=O)N/N=C/c4ccccc4O)cc3)[nH]c2cc1C
2. Cc1cc2nc(-c3ccc(C(=O)N/N=C\c4ccc(Cl)cc4)cc3)[nH]c2cc1C
3. Cc1cc2nc(-c3ccc(C(=O)N/N=C/c4cccc(Cl)c4)cc3)[nH]c2cc1C
4. Cc1ccc(/C=N/NC(=O)c2ccc(-c3nc4cc(C)c(C)cc4[nH]3)cc2)cc1
5. Cc1cc2nc(-c3ccc(C(=O)N/N=C/c4cccc(O)c4)cc3)[nH]c2cc1C
6. Cc1cc2nc(-c3ccc(C(=O)N/N=C/c4ccc(O)c(Br)c4)cc3)[nH]c2cc1C
7. COc1ccc(/C=N/NC(=O)c2ccc(-c3nc4cc(C)c(C)cc4[nH]3)cc2)c(O)c1

Resp:
1. 4.74
2. 4.61
3. 4.65
4. 4.74
5. 4.49
6. 4.46
7. 5.07

The following molecules each have a reported value; give each one's pIC50.
1. COc1ccc(O)c(/C=N/NC(=O)c2ccc(-c3nc4cc(C)c(C)cc4[nH]3)cc2)c1
2. COc1cccc(/C=N/NC(=O)c2ccc(-c3nc4cc(C)c(C)cc4[nH]3)cc2)c1

Resp:
[5.07, 4.82]
